So I've got a bunch of compounds here, and I need their growth inhibition values.
Assay: NCI Yeast Anticancer Drug Screen. Data for the bub3 strain (AID 167)
Settings: S. cerevisiae bub3 mutant strain, at 50.0 µM, stronger effect = higher value
Description: Growth inhibition of yeast strains with defined genetic alterations is measured as a screen for potential anti-cancer activity. Selected strains with alterations in DNA damage repair or cell cycle control were exposed to compounds and growth inhibition was measured relative to vehicle treated controls. The strain used in this assay is bub3
The panel holds about 79,000 compounds, 15% with a hit somewhere; the sample as a whole holds those more often.
Answer format: numeric, % implied, no suffix.

Measured growth inhibition, COC(=O)C1CC(OC(C)=O)C2OC(C)(C)OC2C1OC(C)=O (stereo not drawn) : 8.55

The compound listed as CCc1ccc[n+](CCc2c[nH]c3ccccc23)c1 has a reported growth inhibition of 1.35

Entry Cc1cc2c(C(C)C)c(O)c(O)c(C=NCc3ccc(Br)cc3)c2c(O)c1-c1c(C)cc2c(C(C)C)c(O)c(O)c(C=NCc3ccc(Br)cc3)c2c1O — recorded growth inhibition = -9.15

The reported value for O=C(OCC(OC(=O)c1ccccc1)C(OC(=O)c1ccccc1)C(OC(=O)c1ccccc1)C(COC(=O)c1ccccc1)OC(=O)c1ccccc1)c1ccccc1 (stereo not drawn) in terms of growth inhibition is -5.45

Entry Cc1ccc(NC(=O)Oc2ccccn2)cc1 , growth inhibition reported as -0.35

Entry under test: Cc1cc2[nH]c(=O)c(=O)[nH]c2cc1C . Its growth inhibition was -0.95

Looking up C=C1C(=O)OC2CC(C)C3CC(O)OC(OCC)C3(C)CC12 (stereo not drawn) , I found its growth inhibition recorded as 32.2

get_value(item= CN(C)CC1CCCC/C1=N/OC(=O)c1ccc(Cl)cc1 (stereo not drawn) , readout=growth inhibition) returns -4.6

# compound C=C1CC[N+]2(CCCCCC)CCCC12 (stereo not drawn) ; its growth inhibition = 25.4

Lab note: measured growth inhibition of CCn1c2ccccc2c2c3ncc4cccn4c3ccc21 was 7.95

Reported growth inhibition of NC(=S)N/C=C\c1nc2ccccc2[nH]c1=O : -12.1

The compound listed as CN(C)Cn1c2ccccc2c2ccccc21 has a reported growth inhibition of -0.8

Sure, the documented growth inhibition for C=C1C(=O)O[C@H]2[C@H]1[C@@H](OC(=O)C=C(C)C)CC1=C[C@@H](C[C@@]3(C)O[C@@H]23)OC1=O is -2.6

Measured growth inhibition, CCCCCCC(C)N1C(=O)c2ccccc2C1=O (stereo not drawn) : 0.7

# growth inhibition (compound: CC(C)c1ccc2c(c1)C=C1OC(=O)[C@]3(C)CCC[C@@]2(C)C13 (stereo partly drawn) ) is 26.4

Just so you know, measured growth inhibition for CCOC(C)Oc1ccccc1 (stereo not drawn) came out at -28.1

For this compound ( Cc1cc[n+](CC(=O)CC(O)(C(F)(F)F)C(F)(F)F)cc1 ), measured growth inhibition is -6.95

Entry O=C1OC2(OC2c2ccccc2)c2ccccc21 (stereo not drawn) — recorded growth inhibition = -29.8

Reported growth inhibition ( C=CCOC(=O)NC(Cc1ccc(O)cc1)C(=O)O (stereo not drawn) ) = -10.8

# growth inhibition of Clc1ccc2c(c1)C1Oc3ccc(Cl)cc3C(O2)O1 = -6.4

For reference, reported growth inhibition for O=c1[nH]c(=O)c2ncn(-c3ccc(Cl)cc3)c2[nH]1 stands at -24.4

Summary for this compound, Cc1c(-c2ccccc2)c2ccccc2n1C : growth inhibition is 20.6

The measured growth inhibition associated with CC(C)(N)COC(=O)c1ccc([N+](=O)[O-])cc1 reads 12.2

growth inhibition measured on Cc1ccc(N=Nc2c(C)nc(N)nc2C)cc1 = 12.1

In plain terms, CCCCNc1nc2ccccc2c2c1ncn2CC(C)C has a documented growth inhibition of 46.5

Consider CN1CCN(C(=S)N(C)C(=O)c2ccc(Cl)cc2)CC1 . Its measured growth inhibition is -22.9

# growth inhibition (compound: CCCC(C)CCCC(=O)c1ccc2cc(OC)ccc2c1 (stereo not drawn) ) is -2

Reported growth inhibition ( Clc1cc(Cc2cc(Cl)c(Cl)c3c2OCOC3)c2c(c1Cl)COCO2 ) = -10.6

Notebook: CCOP(=O)(Cc1c(C)cc(Br)c2ccccc12)OCC , growth inhibition read as 5.45

For reference, reported growth inhibition for NC(=O)N/N=C1/CCC(O)CC1CC(=O)O (stereo not drawn) stands at -57.9

Notebook: CCC(=O)c1c(O)c2ccccc2oc1=O , growth inhibition read as 11.8

growth inhibition reading for CC(C)OC1CC1 : 11.7

# compound c1ccc(CN2CCCCC(Sc3ccccc3)CC2)cc1 (stereo not drawn) ; its growth inhibition = 89.7
